target: TEAD3 (Homo sapiens); experiment: Thermal shift assay TEAD3; type: binding
Sequence (Q99594 whole entry, species assumed): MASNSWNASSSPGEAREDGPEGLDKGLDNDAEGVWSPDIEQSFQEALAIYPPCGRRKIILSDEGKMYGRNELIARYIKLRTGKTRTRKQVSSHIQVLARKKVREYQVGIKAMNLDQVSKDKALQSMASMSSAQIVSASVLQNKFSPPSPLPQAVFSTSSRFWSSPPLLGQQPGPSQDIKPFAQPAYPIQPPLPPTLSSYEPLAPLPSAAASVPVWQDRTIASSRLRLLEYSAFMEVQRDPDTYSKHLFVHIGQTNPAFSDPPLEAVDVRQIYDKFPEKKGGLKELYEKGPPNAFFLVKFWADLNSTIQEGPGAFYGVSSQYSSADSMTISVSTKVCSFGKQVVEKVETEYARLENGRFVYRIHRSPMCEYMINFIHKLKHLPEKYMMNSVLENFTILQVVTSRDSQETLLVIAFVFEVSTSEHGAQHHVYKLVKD
Hi there, I'd appreciate the recorded TEAD3 ΔTm for every entry that follows.
Give bare numbers, in °C.

Solved entries:
- compound: "Cn1cc2cc(Oc3ccc(Cl)cc3)cc([C@@H]3C[C@H]3C(=O)N3C[C@@H]4C[C@H]3C[C@@H]4O)c2n1 (single isomer, unassigned)"
  recordedEndpoint: "TEAD3 ΔTm"
  unitOfMeasure: "°C"
  testValue: 2.8
- compound: "Cn1cc2cc(Oc3ccc(C(F)(F)F)cc3)cc([C@@H]3C[C@H]3C(=O)N3CCO[C@H](CO)C3)c2n1 (single isomer, unassigned)"
  recordedEndpoint: "TEAD3 ΔTm"
  unitOfMeasure: "°C"
  testValue: 0.8

Now take the following compound into account.
-- ask Test system TEAD3 (Homo sapiens); read-out TEAD3 ΔTm; what value for Cn1cc2cc(Oc3ccc(C(F)(F)F)cc3)cc([C@@H]3C[C@H]3C(=O)N3CC4CC3C(=O)N4)c2n1 (single isomer, unassigned) ?
-- reply 2.0
